Source of measurements: ChEMBL document CHEMBL4376864

# experimental_target: UniProt P23946
# assay_protocol: Inhibition of recombinant human chymase expressed in Pichia pastoris X-33 cells using NleTDY-pNA as substrate assessed as cleavage of pNA at pH 7.2 and 298 K by spectrophotometry analysis
Bridge positions count the residues as written; N and C are the ends. Square brackets hold non-standard residues; d marks the D form. Peptide text beside a SMILES is read from it. Phe(4-tBu) = CC(C)(C)c1ccc(C[C@H](N)C(=O)O)cc1; Nle = CCCC[C@H](N)C(=O)O
property_measured: IC50

# example entries with known answers
CCCC[C@@H]1NC(=O)CNC(=O)[C@H](CC(=O)O)NC(=O)[C@@H]2CCCN2C(=O)[C@H](Cc2ccccc2)NC(=O)[C@@H]2CSSC[C@H](NC1=O)C(=O)N[C@@H](CC(=O)O)C(=O)N[C@@H](Cc1ccc(O)cc1)C(=O)N[C@@H](CO)C(=O)N[C@@H]([C@@H](C)CC)C(=O)N1CCC[C@H]1C(=O)N1CCC[C@H]1C(=O)N[C@@H]([C@@H](C)CC)C(=O)N2 (cyclo(CDYSIPPICFPDG[Nle]); disulfide 1-9) | > 5 µM
CC(C)(C)c1ccc(C[C@@H]2NC(=O)[C@H](CCC(N)=O)NC(=O)[C@@H]3CSSC[C@H](NC(=O)[C@H](CCC(=O)O)NC(=O)[C@@H]4CCCN4C(=O)[C@@H]4CCCN4C(=O)[C@H](CCC(=O)O)NC(=O)[C@H](CO)NC2=O)C(=O)N[C@@H](Cc2ccccc2)C(=O)N2CCC[C@H]2C(=O)N[C@@H](CC(=O)O)C(=O)NCC(=O)N[C@@H](CCCNC(=N)N)C(=O)N3)cc1 (cyclo(CFPDGRCQ[Phe(4-tBu)]SEPPE); disulfide 1-7) | > 10 µM

Continue with the next compound.
For CC[C@H](C)[C@@H]1NC(=O)[C@@H]2CCCN2C(=O)[C@@H]2CCCN2C(=O)[C@H]([C@@H](C)CC)NC(=O)[C@H](CO)NC(=O)[C@H](CCCCN)NC(=O)[C@H]([C@@H](C)O)NC(=O)[C@@H]2CSSC[C@H](NC1=O)C(=O)N[C@@H](Cc1ccccc1)C(=O)N1CCC[C@H]1C(=O)N[C@@H](CC(=O)O)C(=O)NCC(=O)N[C@@H](CCCNC(=N)N)C(=O)N2 the compound record lists IC50 as > 5 µM

* * *

Listed here are compounds together with their documented Km.
# experimental_target: Chymase (Homo sapiens)
# Sequence (P23946 whole entry): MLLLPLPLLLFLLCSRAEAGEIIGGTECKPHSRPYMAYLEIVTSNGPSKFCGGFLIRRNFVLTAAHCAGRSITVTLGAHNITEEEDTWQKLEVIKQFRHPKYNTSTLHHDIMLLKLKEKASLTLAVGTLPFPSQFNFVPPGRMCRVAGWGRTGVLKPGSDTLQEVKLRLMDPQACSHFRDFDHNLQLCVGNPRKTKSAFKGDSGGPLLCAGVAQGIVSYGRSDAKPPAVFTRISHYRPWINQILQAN
# assay_protocol: Substrate activity at recombinant human chymase expressed in Pichia pastoris X-33 cells assessed as Km by spectrophotometry analysis
# Format: ADME
Square brackets hold non-standard residues; d marks the D form. Peptide text beside a SMILES is read from it. * marks the point of attachment. pNA = O=[N+]([O-])c1ccc(N*)cc1; Nle = CCCC[C@H](N)C(=O)O
Entry rule: numbers only, all in µM.

# example entries with known answers
C[C@@H](O)[C@H](NC(=O)[C@H](CCC(=O)O)NC(=O)[C@@H](N)CCCNC(=N)N)C(=O)N[C@@H](Cc1ccc(O)cc1)C(=O)Nc1ccc([N+](=O)[O-])cc1 (H-RETY-pNA) | 410
CCCC[C@H](N)C(=O)N[C@H](C(=O)N[C@@H](CC(=O)O)C(=O)N[C@@H](Cc1ccc(O)cc1)C(=O)Nc1ccc([N+](=O)[O-])cc1)[C@@H](C)O (H-[Nle]TDY-pNA) | 550
C[C@@H](O)[C@H](NC(=O)[C@@H](N)Cc1ccccc1)C(=O)N[C@@H](CC(=O)O)C(=O)N[C@@H](Cc1ccc(O)cc1)C(=O)Nc1ccc([N+](=O)[O-])cc1 (H-FTDY-pNA) | 370

Continue with the next compound.
For C[C@@H](O)[C@H](NC(=O)[C@@H](NC(=O)[C@@H](N)CCCNC(=N)N)[C@@H](C)O)C(=O)N[C@@H](Cc1ccc(O)cc1)C(=O)Nc1ccc([N+](=O)[O-])cc1 (H-RTTY-pNA) the compound record lists Km as 530
